- ASSAY_DETAILS: phase I pharmacokinetics in blood (dried blood spot, LC-MS/MS, noncompartmental analysis)
- Format: in vivo, human
- SETTINGS: human, whole blood (dried blood spot), intravenous, 340 mg/m2, 340 mg/m^2, cycle 1 Day 22, N = 3, mean ± SD; read-out: Vss
OUTCOME_MEASURE: Vd (L)
Give the value, in units of L, as a plain number.

What does the record list as Vd for O=C(NCCN1CCOCC1)Nc1nc2ccc(Sc3nnc4ccc(-c5ccc(F)cc5)nn34)cc2s1 ?
291
